measurement target: T1, TNFR1 (Homo sapiens, UniProt P19438)
T1 chain: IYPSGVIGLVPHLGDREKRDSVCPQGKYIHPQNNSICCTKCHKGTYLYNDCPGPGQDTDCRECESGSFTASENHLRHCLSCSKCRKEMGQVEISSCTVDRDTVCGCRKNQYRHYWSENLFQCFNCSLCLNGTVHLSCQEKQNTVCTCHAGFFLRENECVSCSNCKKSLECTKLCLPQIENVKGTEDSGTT
test details: yeast display SC50
quantity: apparent Kd (screen) (nM)

A55T (designed binder) SMEEEVEKAAKEYEKKKKEAIEKHLEKLKAKDKEAAERFLKELEEAAKEYAKDETKTMSEEEAKRRAKKYKEKVLLSELSEEEQKEIKEAEEKLVRTILKYVEEAAK : 10.4
K15E (designed binder) SMEEEVEKAAKEYEEKKKEAIEKHLEKLKAKDKEAAERFLKELEEAAKEYAKDEAKTMSEEEAKRRAKKYKEKVLLSELSEEEQKEIKEAEEKLVRTILKYVEEAAK : 0.869
E34K (designed binder) SMEEEVEKAAKEYEKKKKEAIEKHLEKLKAKDKKAAERFLKELEEAAKEYAKDEAKTMSEEEAKRRAKKYKEKVLLSELSEEEQKEIKEAEEKLVRTILKYVEEAAK : 0.539
E22Q (designed binder) SMEEEVEKAAKEYEKKKKEAIQKHLEKLKAKDKEAAERFLKELEEAAKEYAKDEAKTMSEEEAKRRAKKYKEKVLLSELSEEEQKEIKEAEEKLVRTILKYVEEAAK : 0.718
E72N (designed binder) SMEEEVEKAAKEYEKKKKEAIEKHLEKLKAKDKEAAERFLKELEEAAKEYAKDEAKTMSEEEAKRRAKKYKNKVLLSELSEEEQKEIKEAEEKLVRTILKYVEEAAK : 1.27
H24S (designed binder) SMEEEVEKAAKEYEKKKKEAIEKSLEKLKAKDKEAAERFLKELEEAAKEYAKDEAKTMSEEEAKRRAKKYKEKVLLSELSEEEQKEIKEAEEKLVRTILKYVEEAAK : 0.869
K31R (designed binder) SMEEEVEKAAKEYEKKKKEAIEKHLEKLKARDKEAAERFLKELEEAAKEYAKDEAKTMSEEEAKRRAKKYKEKVLLSELSEEEQKEIKEAEEKLVRTILKYVEEAAK : 0.49
E72F (designed binder) SMEEEVEKAAKEYEKKKKEAIEKHLEKLKAKDKEAAERFLKELEEAAKEYAKDEAKTMSEEEAKRRAKKYKFKVLLSELSEEEQKEIKEAEEKLVRTILKYVEEAAK : 0.446
